SYSTEM UNDER TEST: Envelope glycoprotein gp160 (Human immunodeficiency virus 1)
Sequence (Q6QLK5 whole entry): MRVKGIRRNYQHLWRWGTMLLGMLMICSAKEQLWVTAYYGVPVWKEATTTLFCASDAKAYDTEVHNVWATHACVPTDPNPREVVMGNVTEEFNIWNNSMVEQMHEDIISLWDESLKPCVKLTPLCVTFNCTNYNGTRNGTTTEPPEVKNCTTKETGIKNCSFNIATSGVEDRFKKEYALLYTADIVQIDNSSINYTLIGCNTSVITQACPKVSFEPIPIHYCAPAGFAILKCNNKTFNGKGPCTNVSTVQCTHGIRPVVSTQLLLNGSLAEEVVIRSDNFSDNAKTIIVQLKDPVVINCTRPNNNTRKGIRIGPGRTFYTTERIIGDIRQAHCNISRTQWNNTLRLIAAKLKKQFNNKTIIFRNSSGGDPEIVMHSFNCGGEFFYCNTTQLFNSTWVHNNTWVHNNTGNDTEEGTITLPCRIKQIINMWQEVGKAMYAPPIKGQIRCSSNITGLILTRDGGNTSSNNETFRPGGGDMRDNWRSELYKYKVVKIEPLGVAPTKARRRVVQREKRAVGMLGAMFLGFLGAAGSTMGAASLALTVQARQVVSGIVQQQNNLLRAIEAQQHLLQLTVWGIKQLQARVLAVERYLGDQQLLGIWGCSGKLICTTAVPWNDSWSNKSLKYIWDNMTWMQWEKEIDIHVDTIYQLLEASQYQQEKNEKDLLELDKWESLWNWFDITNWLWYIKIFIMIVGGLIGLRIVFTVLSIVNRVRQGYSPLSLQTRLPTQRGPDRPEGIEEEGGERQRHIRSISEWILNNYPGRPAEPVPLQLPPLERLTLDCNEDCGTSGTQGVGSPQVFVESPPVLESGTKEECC
pKd: −log10 of the molar value.
QUANTITY: pKd

Query: pKd; subject: "CS(=O)(=O)N1CCC[C@H](C(=O)Nc2ccc(Cl)cc2)C1"
< 5.00

---

SYSTEM UNDER TEST: Envelope glycoprotein gp160 (Human immunodeficiency virus 1)
TEST NAME: Binding affinity to HIV1JRFL envelope glycoprotein expressed in human HOS cells assessed as fold change in binding to CoRBS 17b incubated for 1 hrs by cell based ELISA relative to BNM-III-170
MEASUREMENT PARAMETERS: JRFL
# label = 1 (yes) if fold change (FC) < 0.2 else 0 (no)

Hello, I'm reviewing records and need to know if fold change (FC) of "NCCCNC(=O)N1CCC[C@H](C(=O)Nc2ccc(Cl)c(F)c2)C1" is below 0.2. Could you check?
0 (no)

Could you do the same for "CCCNC(=N)N1CCC[C@H](C(=O)Nc2ccc(Cl)c(F)c2)C1" , please?
0 (no)

Could you do the same for CS(=O)(=O)N1CCNC(C(=O)Nc2ccc(Cl)c(F)c2)C1 (racemic) , please?
1 (yes)

Could you do the same for "CCOC(=O)N1CCC[C@H](C(=O)Nc2ccc(Cl)c(F)c2)C1" , please?
0 (no)

Could you do the same for "CCCOC(=O)N1CCC[C@H](C(=O)Nc2ccc(Cl)c(F)c2)C1" , please?
0 (no)
